MIC values recorded for K. Pneumonia 13883
measurement.name: MIC (µg/mL)

1. CC[C@H]1OC(=O)[C@H](C)[C@@H](O[C@H]2C[C@@](C)(OC)[C@@H](O)[C@H](C)O2)[C@H](C)[C@@H](O[C@@H]2O[C@H](C)C[C@H](N(C)C)[C@H]2O)[C@](C)(O)C[C@@H](C)CN(C)[C@H](C)[C@@H](O)[C@]1(C)O [Azithromycin, reference compound]    8

A. CC[C@H]1OC(=O)[C@H](C)C(=O)[C@H](C)[C@@H](O[C@@H]2O[C@H](C)C[C@H](N(C)C)[C@H]2O)[C@](C)(OC)C[C@@H](C)C(=O)[C@H](C)[C@H]2N(CCCCn3cnc(-c4cccnc4)c3)C(=O)O[C@]12C [Telithromycin, reference compound]
B. CC[C@H]1OC(=O)[C@H](C)C(=O)[C@H](C)[C@@H](OC2OC(C)CC(N(C)C)C2O)[C@@](C)(OC)C[C@@H](C)C(=O)[C@H](C)[C@H]2N(CCCCn3cc(Cn4nnc5ccccc54)nn3)C(=O)O[C@]12C (some centres unmarked) [OP-1007]
Qu. # query: argmin of MIC over A and B # reply format: chosen label
Ans. A
